- target_desc: Albumin (Homo sapiens)
- Sequence (P02768 whole entry): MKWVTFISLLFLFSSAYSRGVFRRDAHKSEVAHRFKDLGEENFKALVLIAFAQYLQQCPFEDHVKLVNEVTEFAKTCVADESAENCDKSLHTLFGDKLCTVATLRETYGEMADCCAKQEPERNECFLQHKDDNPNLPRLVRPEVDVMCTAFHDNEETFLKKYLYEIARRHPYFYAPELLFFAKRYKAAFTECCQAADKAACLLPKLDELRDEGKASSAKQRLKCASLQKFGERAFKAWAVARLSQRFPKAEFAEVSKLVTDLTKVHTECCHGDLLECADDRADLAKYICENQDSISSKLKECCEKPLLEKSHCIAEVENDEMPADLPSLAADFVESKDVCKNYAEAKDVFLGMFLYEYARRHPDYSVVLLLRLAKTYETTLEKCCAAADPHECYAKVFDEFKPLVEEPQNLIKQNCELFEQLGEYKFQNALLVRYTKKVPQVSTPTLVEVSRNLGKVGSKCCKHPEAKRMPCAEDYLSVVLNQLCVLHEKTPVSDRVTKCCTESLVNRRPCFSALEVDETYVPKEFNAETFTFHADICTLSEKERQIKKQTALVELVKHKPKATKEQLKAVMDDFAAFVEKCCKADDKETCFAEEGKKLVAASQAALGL
- measurement_notes: Binding affinity to human serum albumin in 100 mM phosphate buffer at pH 7.4 assessed as formation of biotin-LC-hydrazide labeled protein carbonyls at 100 uM pretreated 60 mins before biotin-LC-hydrazide challenge measured after 60 mins by SDS-PAGE/Western blotting
- Assay type: ADME
- measurement_setup: isolated protein, pH 7.4, 1 h
endpoint_label: Activity

Please review the following examples before continuing.
[
  {
    "molecule": "COc1c(O)cc(C(=O)O[C@@H]2Cc3c(O)cc(O)cc3O[C@@H]2c2cc(O)c(O)c(O)c2)cc1O",
    "target_desc": "Albumin (Homo sapiens)",
    "endpoint_label": "Activity",
    "endpoint_result": "Active"
  },
  {
    "molecule": "COC(=O)c1cc(O)c(O)c(O)c1",
    "target_desc": "Albumin (Homo sapiens)",
    "endpoint_label": "Activity",
    "endpoint_result": "Not Active"
  },
  {
    "molecule": "Oc1cccc(O)c1O",
    "target_desc": "Albumin (Homo sapiens)",
    "endpoint_label": "Activity",
    "endpoint_result": "Active"
  },
  {
    "molecule": "Oc1cc(O)c2c(c1)O[C@H](c1ccc(O)c(O)c1)[C@H](O)C2 [(-)-EPICATECHIN]",
    "target_desc": "Albumin (Homo sapiens)",
    "endpoint_label": "Activity",
    "endpoint_result": "Active"
  },
  {
    "molecule": "O=C(O[C@@H]1Cc2c(O)cc(O)cc2O[C@@H]1c1ccc(O)c(O)c1)c1cc(O)c(O)c(O)c1 [EPICATECHIN GALLATE]",
    "target_desc": "Albumin (Homo sapiens)",
    "endpoint_label": "Activity",
    "endpoint_result": "Active"
  }
]

Respectfully, I request Activity for each entry included below.
1. Oc1cc(O)c2c(c1)O[C@H](c1cc(O)c(O)c(O)c1)[C@H](O)C2 [EPIGALLOCATECHIN]
2. O=C(O)c1ccc(O)c(O)c1

Return:
Active
Not Active

Dear colleague, could you send me Activity for each of the items below? Thanks.
1. O=C(O[C@@H]1Cc2c(O)cc(O)cc2O[C@@H]1c1cc(O)c(O)c(O)c1)c1cc(O)c(O)c(O)c1 [EPIGALOCATECHIN GALLATE]
2. O=C(O)c1cccc(O)c1O [2,3-DIHYDROXYBENZOIC ACID]
3. O=C(O)c1cc(O)cc(O)c1 [3,5-DIHYDROXYBENZOIC ACID]
4. COc1cc(C(=O)O[C@@H]2Cc3c(O)cc(O)cc3O[C@@H]2c2cc(O)c(O)c(O)c2)cc(O)c1O

Return:
["Active", "Not Active", "Not Active", "Active"]

Enquiry: Return the recorded Activity value; entry: COc1c(O)cc([C@H]2Oc3cc(O)cc(O)c3C[C@H]2OC(=O)c2cc(O)c(O)c(O)c2)cc1O
Return: Active

----------
- measurement_notes: Chemical stability in 100 mM phosphate buffer at pH 7.4 at 100 uM after 60 mins by HPLC analysis
- Format: physicochemical
- measurement_setup: pH 7.4, 1 h
endpoint_label: Stability

[
  {
    "molecule": "COc1c(O)cc([C@H]2Oc3cc(O)cc(O)c3C[C@H]2OC(=O)c2cc(O)c(O)c(O)c2)cc1O",
    "endpoint_result": "Stable"
  },
  {
    "molecule": "Oc1cc(O)c2c(c1)O[C@H](c1ccc(O)c(O)c1)[C@H](O)C2 [(-)-EPICATECHIN]",
    "endpoint_result": "Stable"
  },
  {
    "molecule": "Oc1cc(O)c2c(c1)O[C@H](c1cc(O)c(O)c(O)c1)[C@H](O)C2 [EPIGALLOCATECHIN]",
    "endpoint_result": "Unstable"
  },
  {
    "molecule": "O=C(O[C@@H]1Cc2c(O)cc(O)cc2O[C@@H]1c1cc(O)c(O)c(O)c1)c1cc(O)c(O)c(O)c1 [EPIGALOCATECHIN GALLATE]",
    "endpoint_result": "Unstable"
  },
  {
    "molecule": "COc1cc(C(=O)O[C@@H]2Cc3c(O)cc(O)cc3O[C@@H]2c2cc(O)c(O)c(O)c2)cc(O)c1O",
    "endpoint_result": "Unstable"
  }
]

From here, focus on the item given below.
Enquiry: Could you please provide reported Stability for O=C(O[C@@H]1Cc2c(O)cc(O)cc2O[C@@H]1c1ccc(O)c(O)c1)c1cc(O)c(O)c(O)c1 [EPICATECHIN GALLATE] ? Thanks!
Return: Stable
